Values from ChEMBL document CHEMBL3994674

# measurement_notes: Octanol/phosphate buffer partition co-efficient, log D of the compound at 75 uM at pH 7.4 after 2 hrs by LC-Ms/MS based shake-flask method
# Assay type: physicochemical
readout_name: logD at 2 h, 75 µM

>>> quantitative_readout("Oc1ccc(/C=C/c2cc(O)cc(O)c2)cc1")
2.9
>>> quantitative_readout("Oc1cc(O)cc(/C=C/C23CC(O)(C2)C3)c1")
1.9

###

# measurement_notes: Apparent clearance in Sprague-Dawley rat at 20 mg/kg, po administered as single dose via gavage by HPLC-MS analysis
# Type: ADME, organism-based
# measurement_context: in vivo
readout_name: CL/F (mL/min/kg)

>>> quantitative_readout("Oc1cc(O)cc(/C=C/C23CC(O)(C2)C3)c1")
363

###

# measurement_notes: Cmax in Sprague-Dawley rat at 20 mg/kg, po administered as single dose via gavage after 5 mins by HPLC-MS analysis
# Type: ADME, organism-based
# Parameters: dose 20 mg/kg, route oral
# measurement_context: in vivo
readout_name: Cmax (ng/mL)

>>> quantitative_readout("Oc1cc(O)cc(/C=C/C23CC(O)(C2)C3)c1")
942

###

# measurement_notes: Thermodynamic solubility in pH 7.4 PBS at 10 mg/ml after 1 hr by LC-Ms/MS based shake flask method
# Format: physicochemical
# measurement_context: read-out: Therm_solubility
readout_name: solubility thermodynamic at 1 h (µg/mL)

>>> quantitative_readout("Oc1cc(O)cc(/C=C/C23CC(O)(C2)C3)c1")
619
>>> quantitative_readout("Oc1ccc(/C=C/c2cc(O)cc(O)c2)cc1 [RESVERATROL]")
19

###

# measurement_notes: AUC (0 to last) in Wistar rat at 20 mg/kg, po by HPLC-MS analysis
# Type: ADME, organism-based
# Parameters: dose 20 mg/kg, time 0 - last, route oral
# measurement_context: in vivo
readout_name: AUC(0-t) (ng·h/mL)

>>> quantitative_readout("Oc1ccc(/C=C/c2cc(O)cc(O)c2)cc1")
47.5

###

# measurement_notes: Half life in rat hepatocytes at 5 uM by LC-MS/MS analysis
# Type: ADME, cell-based, Hepatocyte
readout_name: half-life at 5 µM (min)

>>> quantitative_readout("Oc1cc(O)cc(/C=C/C23CC(O)(C2)C3)c1")
24.2

###

# measurement_notes: AUC (0 to last) in Sprague-Dawley rat at 20 mg/kg, po administered as single dose via gavage after 4 hrs by HPLC-MS analysis
# Format: ADME, organism-based
# Design: dose 20 mg/kg, route oral, time 0 - last
# measurement_context: in vivo
readout_name: AUC(0-t) at 4 h (ng·h/mL)

>>> quantitative_readout("Oc1cc(O)cc(/C=C/C23CC(O)(C2)C3)c1")
587

###

# measurement_notes: Plasma concentration in Sprague-Dawley rat at 20 mg/kg, po administered as single dose via gavage up to 4 hrs by HPLC-MS analysis
# Assay type: ADME, organism-based
readout_name: concentration at 4 h (ng/mL)

>>> quantitative_readout("Oc1cc(O)cc(/C=C/C23CC(O)(C2)C3)c1")
85

###

# measurement_notes: Half life in Sprague-Dawley rat at 20 mg/kg, po administered as single dose via gavage by HPLC-MS analysis
# Format: ADME, organism-based
# measurement_context: in vivo
readout_name: half-life

>>> result("Oc1cc(O)cc(/C=C/C23CC(O)(C2)C3)c1")
"2.6 h"

###

# measurement_notes: Half life in human hepatocytes at 5 uM by LC-MS/MS analysis
# Type: ADME, cell-based, Hepatocyte
readout_name: half-life at 5 µM (min)

>>> quantitative_readout("Oc1cc(O)cc(/C=C/C23CC(O)(C2)C3)c1")
90.4
>>> quantitative_readout("Oc1ccc(/C=C/c2cc(O)cc(O)c2)cc1 [RESVERATROL]")
23.2

###

# measurement_notes: Apparent clearance in Wistar rat at 20 mg/kg, po by HPLC-MS analysis
# Assay type: ADME, organism-based
# measurement_context: in vivo
readout_name: CL/F (L/h/kg)

>>> quantitative_readout("Oc1ccc(/C=C/c2cc(O)cc(O)c2)cc1 [RESVERATROL]")
409
